Target: T1, TNFR1 (Homo sapiens, UniProt P19438)
T1 chain: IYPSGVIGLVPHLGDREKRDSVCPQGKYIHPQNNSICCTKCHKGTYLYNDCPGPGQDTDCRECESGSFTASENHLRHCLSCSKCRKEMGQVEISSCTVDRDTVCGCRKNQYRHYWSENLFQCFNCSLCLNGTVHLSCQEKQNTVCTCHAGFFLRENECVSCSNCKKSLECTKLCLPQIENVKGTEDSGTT
Experiment: yeast display SC50
Items are presented alongside their recorded apparent Kd (screen).
Write the answer as a number in nM, unit excluded.

Use these answered entries as a reference point.
[[record]]
binder = "I45Y (designed binder) MTLQELLREEALRRAEAEAFRYALELLAEKFPEQKEYLLDLAEEYESQIRSLSGVDVEDVRKFLDKEWAWVKELLAEHPAELAEVEAARAARLAELRAEVEAKVAA"
experimental_result = 1.86

[[record]]
binder = "R8M (designed binder) MTLQELLMEEALRRAEAEAFRYALELLAEKFPEQKEYLLDLAEEIESQIRSLSGVDVEDVRKFLDKEWAWVKELLAEHPAELAEVEAARAARLAELRAEVEAKVAA"
experimental_result = 0.49

[[record]]
binder = "K66C (designed binder) MTLQELLREEALRRAEAEAFRYALELLAEKFPEQKEYLLDLAEEIESQIRSLSGVDVEDVRKFLDCEWAWVKELLAEHPAELAEVEAARAARLAELRAEVEAKVAA"
experimental_result = 1.4


Field: next binder
Requested read-out: apparent Kd (screen). Entry: L64C (designed binder) MTLQELLREEALRRAEAEAFRYALELLAEKFPEQKEYLLDLAEEIESQIRSLSGVDVEDVRKFCDKEWAWVKELLAEHPAELAEVEAARAARLAELRAEVEAKVAA 2.48
